- target or system: human thyroid receptor beta ligand-binding domain (LBD) (Homo sapiens, UniProt P10828)
- Construct: purchased Invitrogen
- Sequence (P10828 217-461 limits assumed): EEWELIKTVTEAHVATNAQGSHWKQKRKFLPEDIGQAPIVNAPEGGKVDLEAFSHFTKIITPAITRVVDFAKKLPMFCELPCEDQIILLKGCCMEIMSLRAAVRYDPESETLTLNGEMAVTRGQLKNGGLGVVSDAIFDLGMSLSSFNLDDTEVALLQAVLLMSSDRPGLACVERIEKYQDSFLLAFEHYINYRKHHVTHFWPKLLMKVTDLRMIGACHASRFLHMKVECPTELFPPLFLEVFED
- assay comment: TR-FRET thyroid receptor beta coactivator assay (THR biochemical assay, Assay 1)
- setup conditions: Table 5; Assay 1; THRβ; read-out: Activity category Assay 1 THRβ (Emax)
- Source text: The TR-FRET thyroid receptor beta coactivator assay was used with slight, optimized modifications of the manufacturer's protocol (Invitrogen). […] The energy transfer is detected as an increase in the fluorescence emission of the fluorescein acceptor, and a decrease in the fluorescence emission of the terbium donor. […]
experimental endpoint: Emax

Before answering, review these 3 worked examples.
CC(C)[C@H](C)c1cc(Oc2c(Cl)cc(-n3nc(N)c(=O)[nH]c3=O)cc2Cl)n[nH]c1=O : < 50%
Nc1nn(-c2cc(Cl)c(Oc3cc(-c4cccc(OC(F)F)c4)c(=O)[nH]n3)c(Cl)c2)c(=O)[nH]c1=O : 50 to 75%
O=c1cnn(-c2cc(Cl)c(Oc3cc(-c4ccc5c(c4)CCCC5)c(=O)[nH]n3)c(Cl)c2)c(=O)[nH]1 : < 50%

# batch size: 5; output Emax per entry
1. CC(C)Nc1n[nH]c2ccc(Oc3c(Cl)cc(-n4nc(C#N)c(=O)[nH]c4=O)cc3Cl)cc12
2. C[C@H]1C[C@@H](c2cc(Oc3c(Cl)cc(-n4nc(N)c(=O)[nH]c4=O)cc3Cl)n[nH]c2=O)C1 (single isomer, unassigned)
3. Cc1cccc(-c2cc(Oc3c(Cl)cc(-n4nc(N)c(=O)[nH]c4=O)cc3Cl)n[nH]c2=O)c1F
4. Nc1nn(-c2cc(Cl)c(Oc3cc(C45CC(C4)C5)c(=O)[nH]n3)c(Cl)c2)c(=O)[nH]c1=O
5. CC(C)c1cc(Oc2c(Cl)cc(-c3nn(C)c(=O)[nH]c3=O)cc2Cl)n[nH]c1=O

Output:
["< 50%", "< 50%", "< 50%", "< 50%", "50 to 75%"]

Please state, for each entry, its recorded Emax.
1. Cc1cc(-n2nc(N)c(=O)[nH]c2=O)cc(C)c1Cc1cc2c(C(C)C)c[nH]c2cn1
2. CC(C)c1c[nH]c2nnc(Oc3c(Cl)cc(-n4nc(N)c(=O)[nH]c4=O)cc3Cl)cc12
3. Nc1nn(-c2cc(Cl)c(Oc3cc(Cc4ccccc4)c(=O)[nH]n3)c(Cl)c2)c(=O)[nH]c1=O

Output:
> 75%
50 to 75%
< 50%

Could you tell me Emax for each of these molecules? They are listed below.
1. Cc1cccc(-c2cc(Oc3c(Cl)cc(-n4nc(N)c(=O)[nH]c4=O)cc3Cl)n[nH]c2=O)c1
2. O=c1cnn(-c2cc(Cl)c(Oc3cc(-c4ccc5ccccc5c4)c(=O)[nH]n3)c(Cl)c2)c(=O)[nH]1
3. O=c1cc(-c2ccc3c(c2)CCCC3)c(Oc2c(Cl)cc(-n3ncc(=O)[nH]c3=O)cc2Cl)n[nH]1
4. CCCc1c[nH]c2ccc(Oc3c(Cl)cc(-n4nc(C#N)c(=O)[nH]c4=O)cc3Cl)nc12
5. Nc1nn(-c2cc(Cl)c(Oc3n[nH]c(=O)cc3-c3cc4ccccn4n3)c(Cl)c2)c(=O)[nH]c1=O
6. Cc1cc(-n2nc(N)c(=O)[nH]c2=O)cc(C)c1Cc1ccc(O)c(-c2ccccc2)n1
7. Nc1nn(-c2cc(Cl)c(Oc3cc(C(O)C4CCCC4)c(=O)[nH]n3)c(Cl)c2)c(=O)[nH]c1=O (stereo not drawn)
8. Nc1nn(-c2cc(Cl)c(Oc3n[nH]c(=O)cc3-c3ccc4c(c3)CCCC4)c(Cl)c2)c(=O)[nH]c1=O

Output:
< 50%
< 50%
< 50%
< 50%
< 50%
> 75%
< 50%
< 50%

Required: Emax, one value per molecule below.
1. Nc1nn(-c2cc(Cl)c(Oc3n[nH]c(=O)cc3-c3ccc4nnccc4c3)c(Cl)c2)c(=O)[nH]c1=O
2. CC(C)Cc1c[nH]c2ccc(Oc3c(Cl)cc(-n4nc(C#N)c(=O)[nH]c4=O)cc3Cl)cc12
3. N#Cc1nn(-c2cc(Cl)c(Oc3ccc4[nH]ccc4c3)c(Cl)c2)c(=O)[nH]c1=O
4. N#Cc1nn(-c2cc(Cl)c(Oc3ccc4[nH]cc(Cc5ccccc5)c4c3)c(Cl)c2)c(=O)[nH]c1=O

Output:
< 50%
< 50%
< 50%
< 50%
